Target: SIX1-Q177R homeodomain (human, UniProt Q15475 108-198, Q177R)
Sequence: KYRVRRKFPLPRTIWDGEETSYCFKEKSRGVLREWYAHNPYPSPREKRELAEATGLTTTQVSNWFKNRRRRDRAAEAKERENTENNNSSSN
Experiment: universal protein binding microarray; Universal all-10-mer PBM (8x60K, AMADID 030236), 300 nM GST-tagged protein, Alexa Fluor 488 anti-GST; buffer, salt, pH and temperature not stated (as in Berger); high values mean tight binding
Settings: protein: ivt; tags: N-terminal GST; dsDNA, one strand shown
The full ranking holds about 33,000 sequences; the median of “e-score” is about -0.05, and the highest 2% start at about 0.38. This is one part of a sample in which the highest values are shown more often than they occur.
readoutKind: binding signal (E-score)
Report only the number, with the unit E-score understood.

Below, 5 sequences whose answers are already recorded.
| entrySequence | binding signal / E-score |
| --- | --- |
| CACTAACA | 0.284 |
| ACACTGTG | 0.381 |
| ACACTGAA | 0.349 |
| CACCCATG | 0.34 |
| ACACTGAC | 0.381 |

Which value of binding signal has been reported for ACTCTGAC in the records?
0.172

Look up binding signal for this sequence: ACACTAGT
0.389

Can you look up the measured binding signal of CACGAAAG for me?
0.16

Could you tell me which binding signal is on file for CGGGGTGC ?
0.219

Please look up its binding signal: CAACTACA
0.247

Which binding signal value is on record for ACCCTTTC ?
0.194

Look up binding signal for this sequence: AGTGGTAG
0.157

Given the sequence ACACTGAG , what is its reported binding signal?
0.354

May I ask what binding signal has been recorded for ACCCTAGG ?
0.152
